# System: A2780cisR (ovarian carcinoma-cisPt resistance cell line)
# Procedure Text: Cytotoxicity test, IC50 determination by MTT test
# Format: cell-based
# Particulars: Homo sapiens, A2780cisR; 24 hr incubation, 20000 cells/well, 10% serum, ethanol solutions; read-out: IC50 ± SD (MTT-Test), A2780cisR
pIC50: −log10 of the molar value.
Result Type: pIC50

                                   compound                                    system  result_type  measured_value
0  CCCCCCCCCC(O)CNCCCCCCCC (centres unmarked)  A2780cisR (ovarian carcinoma-cisPt resistance cell line)        pIC50            5.00
1  CCCCCCCCCC(O)CNCCCCCC (centres unmarked)  A2780cisR (ovarian carcinoma-cisPt resistance cell line)        pIC50            4.66
